# ASSAY SUMMARY: Pharmacokinetic profile in dog (IV)
# RECORDED CONDITIONS: in vivo, IV at dose 3 mg/kg, read-out: Cl (dog)
METRIC NAME: clearance (mL/min/kg)
Give bare numbers, in mL/min/kg.

Problem: Request the reported clearance associated with N#Cc1cc(NC(=O)[C@H]2c3ccccc3C(=O)N(CC(F)(F)F)[C@@H]2c2cccnc2)ccc1F [(+) SJ-733, reference compound]
Result: 3

---

# ASSAY SUMMARY: Pharmacokinetic profile in dog (IV)
# RECORDED CONDITIONS: in vivo, IV at 1 mg/kg, read-out: t½ (dog) (converted)
METRIC NAME: half-life (h)
Numbers only, in h.

Problem: Would you kindly share the measured half-life for N#Cc1cc(NC(=O)[C@H]2c3ccccc3C(=O)N(CC(F)(F)F)[C@@H]2c2ccc(OC3CC3)nc2)ccc1F (single isomer, unassigned) ?
Result: 41

Reference source: patent US12509439B2
